Cited source: PubChem BioAssay (NCI)

Record form. Attribute: growth inhibition. Fill in for each entry.
Experiment Description: NCI Yeast Anticancer Drug Screen. Data for the mec2-1 strain (AID 157)
Condition Details: S. cerevisiae mec2-1 strain, at 50.0 µM, stronger effect = higher value
This is part of a sample that, as a whole, favours compounds with a hit. Of some 79,000 tested, about 15% had one in any assay. Where a SMILES comes first, the peptide text is derived from it. [ ]: non-standard residue; d: D form. The star is where a group is joined. ξ: configuration not given here. ξPhe(4-NO2) = NC(Cc1ccc([N+](=O)[O-])cc1)C(=O)O; Boc = CC(C)(C)OC(=O)*; OBn = c1ccc(CO*)cc1
Write down the numeric answer in % and omit the unit.

// field: growth inhibition; key: Cn1ncc2c(=S)[nH]c(=S)[nH]c21 ; value = -9.25

// field: growth inhibition; key: COc1ccc(C2c3cc4c(cc3OC(Nc3ccccc3)C2C)OCO4)cc1 (stereo not drawn) ; value = 9.95

// field: growth inhibition; key: CC(=O)OCC1OC(c2ccccc2)C/C(=N/O)C1OC(C)=O (stereo not drawn) ; value = 98.5

// field: growth inhibition; key: COC1OC(CO)C(OC(=O)Nc2ccccc2)C(OC(=O)Nc2ccccc2)C1O (stereo not drawn) ; value = -10.7

// field: growth inhibition; key: CC(=[N-])CC(C)=O.O=C(CC(=Nc1ccccc1)c1ccccc1)c1ccccc1.[Cu+] ; value = -7.5

// field: growth inhibition; key: CC(C)(C)OC(=O)NC(Cc1ccc([N+](=O)[O-])cc1)C(=O)NCC(=O)OCc1ccccc1 (stereo not drawn) (Boc-[ξPhe(4-NO2)]-Gly-OBn) ; value = 8.45

// field: growth inhibition; key: COC(=O)[CH2][Ge]([c]1ccccc1)[c]1ccccc1.COC(=O)[CH2][Ge]([c]1ccccc1)[c]1ccccc1 ; value = 9.15

// field: growth inhibition; key: O=S(Cc1ccccc1)CC(O)CO (stereo not drawn) ; value = 5.95

// field: growth inhibition; key: COC1OC(CBr)C(OC(=O)c2ccccc2)C(OC(C)=O)C1OC(C)=O (stereo not drawn) ; value = -4.6

// field: growth inhibition; key: O=C(c1ccccc1)c1ccc2c(c1)-c1ccccc1-2 ; value = -7

// field: growth inhibition; key: O=C(COc1ccc(Cl)c(Cl)c1)NCc1ccc(Cl)cc1 ; value = 13.2

// field: growth inhibition; key: Cc1ccc(SCc2cn(C3OC(CO)C(O)C3O)c(=O)[nH]c2=O)cc1 (stereo not drawn) ; value = 20.4

// field: growth inhibition; key: O=C(O)C(Cc1ccc(O)cc1)N=Cc1nc(-c2ccccc2)oc1O (stereo not drawn) ; value = -3.5

// field: growth inhibition; key: C=C(Cl)COc1ccc(OCC(=C)Cl)cc1 ; value = -17.1

// field: growth inhibition; key: COc1ccc(-c2oc3ccccc3c(=O)c2O)cc1OC ; value = 9.9

// field: growth inhibition; key: COc1ccc(CC2(C(=O)O)NCCc3cc(O)c(OC)cc32)cc1O (stereo not drawn) ; value = -3.25

// field: growth inhibition; key: C=CCCCCCCCCCCCCCCC ; value = -26.9

// field: growth inhibition; key: COC(=O)C(C)CN1CCCCC1 (stereo not drawn) ; value = 6.2

// field: growth inhibition; key: CC1=Nc2nc3ccccc3n2C(C)(C)C1 ; value = 18.8

// field: growth inhibition; key: CN(C)C1C(CO)OC(n2cnc3c(N)ncnc32)C1O (stereo not drawn) ; value = 12.8

// field: growth inhibition; key: Cc1cc(=O)[nH]c(NN2C(Cl)C(=O)C2c2ccc([N+](=O)[O-])cc2)n1 (stereo not drawn) ; value = -24.2

// field: growth inhibition; key: CC1CCCC2(CN=C(Nc3ccccc3)O2)C1 (stereo not drawn) ; value = -8.45

// field: growth inhibition; key: COc1cc2c(NCCCCCCO[N+](=O)[O-])ncnc2c(OC)c1OC ; value = -5.7

----------
Experiment Description: NCI Yeast Anticancer Drug Screen. Data for the sgs1 mgt1 strain (AID 161);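 also: 0% = growth of cultures given vehicle only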
Condition Details: S. cerevisiae sgs1 mgt1 strain, at 50.0 µM, stronger effect = higher value
Compounds without any hit were thinned out: in the full panel of roughly 79,000, 15% have a hit.
Record form. Attribute: growth inhibition. Fill in for each entry.
Write down the numeric answer in % and omit the unit.

// field: growth inhibition; key: CC(C)([NH-])C[NH-].[Cl][Pt+2][Cl] ; value = -24.5

// field: growth inhibition; key: Cc1ccc(S(=O)(=O)N/N=C2/C(=N/NS(=O)(=O)c3ccc(C)cc3)C3CCC2C3)cc1 ; value = -2.75

// field: growth inhibition; key: CNc1ccc(Cl)cc1C(N)=O ; value = 28.7

// field: growth inhibition; key: O=C(N/N=C\c1ccccc1)Nc1cccc2ccccc12 ; value = 20.3

// field: growth inhibition; key: Cc1ccnc(SCC(=O)O)n1 ; value = 5.45

// field: growth inhibition; key: CCc1ccccc1OCC1CO1 (stereo not given) ; value = 11.2

// field: growth inhibition; key: CCC(=O)Oc1cccc2ccccc12 ; value = -14.8

// field: growth inhibition; key: CCCCOC(=O)c1ccccc1OC ; value = -2.3

// field: growth inhibition; key: CCCCOC(=O)c1ccc(Cl)c(Cl)c1 ; value = -14.9

// field: growth inhibition; key: CC1CC(NN(C)C)C2(C(N)=O)C(N)=NC(=O)C12C#N (stereo not given) ; value = -23.9

// field: growth inhibition; key: COC(=O)C1(CC(=O)c2ccc(N3CCN(c4ccc(C(=O)CC5(C(=O)OC)NC(=S)NC(=O)C5C#N)cc4)CC3)cc2)NC(=S)NC(=O)C1C#N (stereo not given) ; value = -21.4

// field: growth inhibition; key: COc1cc(C(C)S(=O)(=O)O)ccc1O (stereo not given) ; value = 8.45

// field: growth inhibition; key: O=C(NNC(=S)Nc1ccccc1)C12CC3CC(CC(C3)C1)C2 ; value = 29.8

// field: growth inhibition; key: COc1cc(CNC(=S)CCCCCCCCCCC(C)C)ccc1O ; value = -4.5

// field: growth inhibition; key: CC(O)(c1ccncc1)c1cc2ccccc2n1S(=O)(=O)c1ccccc1 (stereo not given) ; value = 14.8

// field: growth inhibition; key: Cc1nc2sccn2c1C(=O)NC(=O)Nc1ccc(Cl)cc1 ; value = -2.75

// field: growth inhibition; key: Cc1ccc(COC(=O)Nc2ccc(C)c(NC(=O)OCc3ccc(C)cc3)c2)cc1 ; value = 11.7

// field: growth inhibition; key: Cc1cc(C)c2c(ccc3ccccc32)n1 ; value = -23.4

// field: growth inhibition; key: c1ccc2c(CN3CCN(Cc4c[nH]c5ccccc45)CC3)c[nH]c2c1 ; value = -14.5

// field: growth inhibition; key: CN(C)C=Nc1ccn(CCO)c(=O)n1 ; value = 23.6

// field: growth inhibition; key: O=C(O)C(Cc1ccc2c(c1)CCC2)(Cc1ccc2c(c1)CCC2)C(=O)O ; value = -4

// field: growth inhibition; key: CCOC(=O)C(CO)C1CCCC1 (stereo not given) ; value = 7.9

// field: growth inhibition; key: [O-][n+]1onc2c1CCC(=N\O)/C2=N/Nc1ccccc1 ; value = -15.1

// field: growth inhibition; key: COC(=O)c1cc(Cl)ccc1OCC(=O)NCc1ccc(Cl)cc1 ; value = 11.8

// field: growth inhibition; key: COc1ccc(-c2c3c(n(C4OC(COC(C)=O)C(OC(C)=O)C(OC(C)=O)C4OC(C)=O)c(=S)c2C#N)CCC3)cc1 (stereo not given) ; value = 43.3

----------
Record form. Attribute: growth inhibition. Fill in for each entry.
Experiment Description: NCI Yeast Anticancer Drug Screen. Data for the sgs1 mgt1 strain (AID 161);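 also: 0% = growth of cultures given vehicle only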
Condition Details: S. cerevisiae sgs1 mgt1 strain, at 50.0 µM, stronger effect = higher value
The panel holds about 79,000 compounds, 15% with a hit somewhere; the sample as a whole holds those more often. The source made the active and inactive calls. Rule as the data show it: active = growth inhibition above about 70%; inactive = the rest.

// field: growth inhibition; key: Nc1ccnc(Cl)n1 ; value = -13.2% (inactive)

// field: growth inhibition; key: O=C(C[n+]1ccc2ccccc2c1)c1ccc(Br)cc1 ; value = 1.8% (inactive)

// field: growth inhibition; key: CC1CN(C(=O)Nc2ccc([N+](=O)[O-])cc2)CC(C)O1 (stereo not given) ; value = 13.7% (inactive)

// field: growth inhibition; key: Cn1c(=O)c2c(nc(C[N+]3([O-])CCOCC3)n2C)n(C)c1=O ; value = -27.9% (inactive)

// field: growth inhibition; key: CC1Cc2cc(O)ccc2C2[C@@H]1C1CC[C@H](O)[C@@]1(C)C[C@@H]2O[N+](=O)[O-] (stereo not given in full) ; value = 55.8% (inactive)

// field: growth inhibition; key: CCOC(=O)C1C(c2cc(OC)c(OC)c(OC)c2)c2cc3c(cc2OC1(C)N1CCCC1)OCO3 (stereo not given) ; value = -12.3% (inactive)

// field: growth inhibition; key: Oc1c(Br)cc(Br)cc1/C=N/N=C/c1cc(Br)cc(Br)c1O ; value = -15.9% (inactive)

// field: growth inhibition; key: CCOC(=O)COC(=O)CCc1ccccc1 ; value = -5% (inactive)

// field: growth inhibition; key: CC1(C)[C@@H]2C[C@H]1C(Cc1cccc(C[C@H]3c4cc(-c5ccccn5)ncc4[C@H]4C[C@@H]3C4(C)C)c1)c1cc(-c3ccccn3)ncc12 (stereo not given in full) ; value = 4.95% (inactive)

// field: growth inhibition; key: O=[N+]([O-])c1cccc2nc3ccccc3c(NCCc3ccccn3)c12 ; value = 20.6% (inactive)
